Attribution: ChEMBL document CHEMBL5329201

Species on record: Homo sapiens
Experiment: Inhibition of His-tagged human recombinant BRPF1B bromodomain using biotinylated H4 (1 to 21)K5/8/12/16Ac peptide as substrate at 20 uM incubated for 0.5 hrs by AlphaScreen assay relative to control
Listing of recorded inhibition by entry.

# RECORD_SMILES, inhibition [%]
rows = [
    ("COC(=O)c1cc(NC(=O)Nc2cccc(C(F)(F)F)c2)c2[nH]c(C)c(C(C)=O)c2c1", 82.3),
    ("CCOC(=O)Nc1cc(C(=O)OC)cc2c(C(C)=O)c[nH]c12", 13.1),
    ("CCOC(=O)Nc1cc(C(=O)OC)cc2c(C(C)=O)c(C)n(C)c12", 99.8),
]
